All figures here come from patent US10682352B2.

Molecular target: IDH1 R132H (Homo sapiens (Human), UniProt O75874, R132H)
Sequence (O75874 whole entry R132H): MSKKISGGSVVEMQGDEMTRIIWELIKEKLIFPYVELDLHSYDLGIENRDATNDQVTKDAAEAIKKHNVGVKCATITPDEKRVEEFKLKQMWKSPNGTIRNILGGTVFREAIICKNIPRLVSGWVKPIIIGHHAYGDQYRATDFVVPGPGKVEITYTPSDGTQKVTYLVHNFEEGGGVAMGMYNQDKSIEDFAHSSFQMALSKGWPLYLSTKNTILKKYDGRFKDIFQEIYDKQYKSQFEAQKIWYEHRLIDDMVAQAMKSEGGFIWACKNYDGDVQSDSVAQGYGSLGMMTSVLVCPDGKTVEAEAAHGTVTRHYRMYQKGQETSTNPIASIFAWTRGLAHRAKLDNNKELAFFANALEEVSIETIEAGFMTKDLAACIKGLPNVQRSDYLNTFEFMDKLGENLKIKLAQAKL
Test: Effect on the enzyme activity of IDH1 at the molecular level (NADPH consumption, diaphorase/resazurin)
Conditions: α-KG 1 mM, NADPH 4 μM, 60 min room temperature
Entries and their IC50 values follow.

Reference set, count: 2
molecule: C[C@H](Nc1nccc(N2C(=O)NC[C@@H]2C2CC2)n1)c1cn(-c2ccc(Cl)cc2)cn1 [Compound 14]
system-tested: IDH1 R132H (Homo sapiens (Human), UniProt O75874, R132H)
IC50: 100 to 1000 nM
--
molecule: CC(C)[C@H]1CN(C)C(=O)N1c1ccnc(N[C@@H](C)c2cn(-c3cc(Cl)cc(Cl)c3)cn2)n1 [Compound 60]
system-tested: IDH1 R132H (Homo sapiens (Human), UniProt O75874, R132H)
IC50: 100 to 1000 nM

[ask] State the recorded IC50 for this entry: [2H]C1([2H])[C@H](C(C)C)N(c2ccnc(N[C@@H](C)c3cc(C)c(-c4ccnc(C(F)(F)F)c4)cn3)n2)C(=O)N1C [Compound 109]
[reply] 100 to 1000 nM
